// provenance: BigSolDB 2.1

conditionDescription: in DMF, 303.15 K
readoutName: solubility (mole fraction)

Oc1c(Cl)cc(Cl)c2cccnc12 : 0.0194

* * *

conditionDescription: in water, 333.15 K
readoutName: solubility (mole fraction)

Oc1c(Cl)cc(Cl)c2cccnc12 : 1.15e-05

* * *

conditionDescription: in 1,4-dioxane, 328.15 K
readoutName: solubility (mole fraction)

Oc1c(Cl)cc(Cl)c2cccnc12 : 0.017

* * *

conditionDescription: in DMSO, 318.15 K
readoutName: solubility (mole fraction)

Oc1c(Cl)cc(Cl)c2cccnc12 : 0.00997

* * *

conditionDescription: in 1,4-dioxane, 313.15 K
readoutName: solubility (mole fraction)

Oc1c(Cl)cc(Cl)c2cccnc12 : 0.0106
